- Tested on: CAKI-1 renal
- ASSAY OVERVIEW: NCI-60 one-dose screen, 48 h (100 = growth as untreated, 0 = no growth, -100 = all killed)
- EXPERIMENTAL CONDITIONS: 10 µM unless noted
The panel holds about 83,000 compounds, 20% with a hit somewhere; the sample as a whole holds those more often. Active and inactive are the calls of the source. Rule for the calls: active = growth percent below 10; inactive = the rest.

{"columns": ["COMPOUND", "EXPERIMENTAL TARGET", "growth"],
 "data": [
  ["NS(=O)(=O)c1ccc(-n2cc(-c3cccc(NC(=O)c4cc(Cl)cc(Cl)c4)c3)nn2)cc1", "CAKI-1 renal", "94.2% (inactive)"],
  ["Cn1cc(-c2cc(N)n3nc(-c4cn(C)c5ccc(Cl)cc45)cc3n2)c2ccccc21", "CAKI-1 renal", "95.4% (inactive)"],
  ["COc1cccc(-c2c(C#N)c(-c3ccc(Cl)cc3)nc3n[nH]c(-c4ccc(Cl)cc4)c23)c1", "CAKI-1 renal", "39.1% (inactive)"],
  ["Clc1cccc(N/N=C/c2c[nH]c3ccc(Br)cc23)n1", "CAKI-1 renal", "11.7% (inactive)"],
  ["O=c1oc2ccccc2cc1-c1csc(N=Nc2c(O)[nH]c3ccc(Cl)cc23)n1", "CAKI-1 renal", "106% (inactive)"],
  ["O=c1oc2ccc(Br)cc2cc1C1=CSc2nc3sc4c(c3c(=O)n2N=C1)CCCC4", "CAKI-1 renal", "96.2% (inactive)"],
  ["O=C(CSc1nc2ccccc2c(=O)[nH]1)NCCN1CCCCC1", "CAKI-1 renal", "82.4% (inactive)"],
  ["COc1ccc2[nH]c(O)c(N=NC(=O)COc3ccc(NC(=O)Nc4ccccc4)cc3)c2c1", "CAKI-1 renal", "82.5% (inactive)"],
  ["CCOC(=O)C1=C(N)N(c2ccccc2)C2=C(C(=O)CC(C)(C)C2)C1c1ccc([N+](=O)[O-])cc1 (centres undefined)", "CAKI-1 renal", "68.4% (inactive)"]
]}

###

- Tested on: NCI-H226 lung
- ASSAY OVERVIEW: NCI-60 one-dose screen, 48 h (100 = growth as untreated, 0 = no growth, -100 = all killed)
- EXPERIMENTAL CONDITIONS: 10 µM unless noted
Compounds without any hit were thinned out: in the full panel of roughly 83,000, 20% have a hit.
Mark fulfilled only for growth values smaller than 60%; exact matches and larger values are not fulfilled.

{"columns": ["COMPOUND", "LABEL CLASS"],
 "data": [
  ["O=C1/C(=C/C2=Cc3ccccc3OC2)SC(=S)N1c1ccccc1F", "not fulfilled"],
  ["Cc1nc(Nc2ccccn2)sc1C(=O)CC(SCC(=O)Nc1ccc(Cl)cc1)c1ccccc1F (centres undefined)", "fulfilled"],
  ["COc1cc(/C=C2\\C(=N)N=C(SCc3nc4ccccc4[nH]3)NC2=O)ccc1O", "not fulfilled"],
  ["COc1ccc2c(c1)c(-c1cc(N)n3nc(-c4cn(C)c5ccccc45)cc3n1)cn2C", "fulfilled"],
  ["CC(=O)/C=C/c1cccc2c1C(=O)NC(C)(c1cc3cc(Br)ccc3oc1=O)N2 (centres undefined)", "fulfilled"],
  ["Cc1ccc(S(=O)(=O)c2nc(S(=O)(=O)c3ccc(C)cc3)c(N3CCC(O)CC3)s2)cc1", "not fulfilled"],
  ["Cc1ccc(C2CC(c3ccc(S(=O)(=O)NCCNc4nc(Nc5ccc(F)cc5)nc(N(C)C)n4)cc3)=Nc3c(N)nc(N)nc3N2)cc1 (centres undefined)", "not fulfilled"],
  ["O=C(CN1C(=O)/C(=C/c2ccccc2Cl)SC1=S)N1CCOCC1", "not fulfilled"],
  ["CN(C)CCn1c2ccccc2c2nc3cc(C(F)(F)F)ccc3nc21", "fulfilled"],
  ["COc1ccc2[nH]c(O)c(N=NC(=O)Cn3c(-c4ccccc4)nc4cc(C)ccc43)c2c1", "fulfilled"],
  ["CN(C)CCn1c2ccccc2c2nc3cc4ccccc4cc3nc21", "fulfilled"],
  ["O=C(N/N=C/c1ccc(-c2ccc(O)cc2)s1)c1[nH]c2ccc(Br)cc2c1-c1ccccc1", "fulfilled"],
  ["O=C1Nc2cc(Cl)ccc2/C1=C/c1cccc(OCc2ccccn2)c1", "fulfilled"],
  ["Cc1ccc(NCC(=O)Cn2cc(COc3ccc(C=Nc4cnc5ccccc5c4)cc3)nn2)cc1", "not fulfilled"],
  ["CCCSc1nc(Nc2ccc(S(N)(=O)=O)cc2)c(C#N)c(-c2ccc(Cl)cc2)n1", "fulfilled"],
  ["COc1ccc(NC(=O)Cn2c3c(sc2=O)[C@H]2[C@@H](O)[C@@H](O)[C@H](O)[C@@H]2CS3)cc1", "not fulfilled"],
  ["C#CCOc1cc(N(CC)CC)ccc1C(C(=O)NC(C)(C)C)N(C(=O)C1CCc2cc(F)ccc2O1)c1ccccc1Br (centres undefined)", "not fulfilled"],
  ["Cc1ccc2c(c1)nc(-c1ccccc1)n2CC(=O)N=Nc1c(O)[nH]c2ccc(Br)cc12", "fulfilled"],
  ["O=C(c1ccccc1)c1ccc2nc(-c3ccc(F)cc3)[nH]c2c1", "fulfilled"]
]}

###

- Tested on: SK-OV-3 ovarian
- ASSAY OVERVIEW: NCI-60 one-dose screen, 48 h (100 = growth as untreated, 0 = no growth, -100 = all killed)
- EXPERIMENTAL CONDITIONS: 10 µM unless noted
The panel holds about 83,000 compounds, 20% with a hit somewhere; the sample as a whole holds those more often.
Documented growth across a set of molecules

{"columns": ["MOLECULE", "EXPERIMENTAL TARGET", "growth (%)"],
 "data": [
  ["CCCCNC(=S)Nc1ccc(OCc2nc3ccccc3[nH]2)cc1", "SK-OV-3 ovarian", 113],
  ["COc1ccc(C2=NN(c3ccccc3)C(c3ccc(OCc4ccccc4)c(OC)c3)C2)cc1OC (stereo not drawn)", "SK-OV-3 ovarian", 98.1],
  ["CNC(=O)c1cccc(NC(=O)c2ccc3c(c2)nnn3/C(C#N)=C/c2ccccn2)c1", "SK-OV-3 ovarian", 83.4],
  ["COc1c(F)ccc(C(=O)Nc2ccc3nc(NC(=O)C4CCCN(S(=O)(=O)c5cccc(C(F)(F)F)c5)C4)sc3c2)c1F (stereo not drawn)", "SK-OV-3 ovarian", 102],
  ["O=c1cc(-c2ccccc2)oc2cc(OCCCC[P+](c3ccccc3)(c3ccccc3)c3ccccc3)cc(O)c12", "SK-OV-3 ovarian", -83.4],
  ["CCCCCCCCc1ccc(C(=O)Nc2cccc(P(=O)(O)O)c2)cc1", "SK-OV-3 ovarian", 112],
  ["CCOc1ccc(-c2c(C#N)c(-c3ccc(Cl)cc3)nc3n[nH]c(-c4ccc(Cl)cc4)c23)cc1OC", "SK-OV-3 ovarian", 63.4],
  ["CC1(C)CC[C@]2(C(=O)O)CC[C@]3(C)C(=CCC4[C@@]5(C)C[C@@H](O)[C@@H]6OC(c7ccco7)OC[C@@]6(C)C5CC[C@]43C)C2C1 (stereo partly drawn)", "SK-OV-3 ovarian", 75.6],
  ["O=C1/C(=C/C2=Cc3ccccc3OC2)SC(=S)N1c1ccccc1F", "SK-OV-3 ovarian", 95.3],
  ["CC1=C(C(=O)c2ccccc2)C(c2ccc(-n3cncn3)cc2)n2c(nc3ccccc32)N1 (stereo not drawn)", "SK-OV-3 ovarian", 79.3],
  ["CC(=O)c1cc(C(=O)c2ccccc2)n2c1ccc1ccccc12", "SK-OV-3 ovarian", 85.8],
  ["O=C(N1c2ccccc2Sc2ccccc21)n1ccc2cccnc21", "SK-OV-3 ovarian", 79.9],
  ["COc1cc2c(c(OC)c1OC)C(=O)CC(c1cccc(NC(=O)c3cc(NC(=O)[C@H](CO)NC(=O)OC(C)(C)C)ccc3Cl)c1)O2 (stereo partly drawn)", "SK-OV-3 ovarian", 81.7],
  ["COc1cc2c(c(OC)c1OC)C(=O)CC(c1cccc(NC(=O)c3cc(N)ccc3Cl)c1)O2 (stereo not drawn)", "SK-OV-3 ovarian", 65.6],
  ["COc1c(F)ccc(C(=O)Nc2ccc3nc(NC(=O)C4CCCN(S(=O)(=O)c5ccc(Cl)cc5)C4)sc3c2)c1F (stereo not drawn)", "SK-OV-3 ovarian", 97.2],
  ["N#Cc1c(-c2ccccc2Cl)cc(-c2c[nH]c3ccccc23)[nH]c1=O", "SK-OV-3 ovarian", 87.8],
  ["Cn1cc(-c2nnc(N)nc2-c2c[nH]c3ccccc23)c2cccnc21", "SK-OV-3 ovarian", 64.6],
  ["Cc1ccc(C(=O)CSc2nc3ccc(F)cc3c(=O)n2-c2ccc(Cl)cc2)cc1", "SK-OV-3 ovarian", 46]
]}

###

- Tested on: SN12C renal
- ASSAY OVERVIEW: NCI-60 one-dose screen, 48 h (100 = growth as untreated, 0 = no growth, -100 = all killed)
- EXPERIMENTAL CONDITIONS: 10 µM unless noted
The panel holds about 83,000 compounds, 20% with a hit somewhere; the sample as a whole holds those more often.
READOUT NAME: growth (%)

{"columns": ["COMPOUND", "READOUT NAME", "UOM", "RESULT VALUE"],
 "data": [
  ["O=C1c2c(c3c4cc(F)ccc4oc3c3[nH]c4ccc(Br)cc4c23)C(=O)N1O", "growth", "%", 19.2],
  ["Cc1occc1C(=O)NN1C(=O)/C(=C/C=C/c2ccc([N+](=O)[O-])o2)SC1=S", "growth", "%", -88.1],
  ["Cc1cc(C)cc(NC(=O)Cn2cc(COn3nnc4ccccc43)nn2)c1", "growth", "%", 97.3],
  ["CSc1ccc(NC(=O)c2ccc3nn(/C(C#N)=C/c4ccccn4)nc3c2)cc1", "growth", "%", -65.7],
  ["Cc1ccc([C@H]2C(C(=O)c3ccc(Cl)cc3)C3(N[C@@H]2c2ccccc2)C(=O)Nc2ccc(Cl)cc23)cc1 (some centres undefined)", "growth", "%", -1.19],
  ["COc1ccc(/C=N/NC(=O)Cn2nc(Cc3ccc(OC)cc3)c3onc(C)c3c2=O)cc1", "growth", "%", 27.5],
  ["N#Cc1c(-c2ccccc2Cl)cc(-c2c[nH]c3ccccc23)[nH]c1=O", "growth", "%", 61.5],
  ["CC(=O)Nc1ccc(C(=O)NC(=S)Nc2ccc(S(N)(=O)=O)cc2)cc1", "growth", "%", 91.7],
  ["Brc1ccc(-c2n(Cc3ccc4ccccc4c3)c(-c3ccccc3)c(-c3ccccc3)[n+]2Cc2ccc3ccccc3c2)cc1", "growth", "%", -85.4]
]}
